Each recorded value in this set is attributed to ChEMBL document CHEMBL2311276.

Test system: NCI-H522
method-notes: Cytotoxicity against human NCI-H522 cells assessed as growth inhibition at 1 x 10 '-5 M after 24 hrs by MTT assay
Assay type: functional
assay-context: NCI-H522, 24 h, read-out: GI
Kind request: treat 20% as inclusive, so inhibition of growth at 10 µM at 20% or higher is Yes, anything lower is No.

Reference set, count: 5
{"compound": "N=C(NCCCN1CCN(CCCNC(=N)c2cnccn2)CC1)c1cnccn1", "class-name": "No"}
{"compound": "N=C(NCCN1CCOCC1)c1ccccn1", "class-name": "Yes"}
{"compound": "N=C(Nc1ccc(-c2ccc(NC(=N)c3ccccn3)cc2)cc1)c1ccccn1", "class-name": "Yes"}
{"compound": "C[C@@H]1C[C@@H]([C@H](O)CC2CC(=O)NC(=O)C2)C(=O)[C@@H](C)C1 [CYCLOHEXIMIDE]", "class-name": "No"}
{"compound": "N=C(NCc1cccnc1)c1cnccn1", "class-name": "No"}

Request: Does inhibition of growth at 10 µM meet or surpass 20% for `N=C(NCCN1CCOCC1)c1cnccn1` ?
Result: Yes

Request: Textbook exercise: given the entry `N=C(NCCN1CCNCC1)c1ccncc1` , state whether its inhibition of growth at 10 µM is greater than or equal to 20%.
Result: No

Request: Is inhibition of growth at 10 µM at least 20%? Consider `N=C(Nc1ccc(-c2ccc(NC(=N)c3ccncc3)cc2)cc1)c1ccncc1`
Result: Yes

Request: In plain terms: is recorded inhibition of growth at 10 µM at least 20% for `O=c1[nH]cc(F)c(=O)[nH]1` ?
Result: No
